- System: thyroid hormone receptor (endogenous TRα and TRβ)
- Design: species or system GH3-TRE-Luc (rat pituitary); GH3-TRE-Luc luciferase reporter, antagonist mode against 1 nM T3, loss of signal, qHTS
- run.parameters: read-out: Average AC50 (uM) GH3-TRE-Antag, antagonist mode, 1 nM T3, no GH3 cytotoxicity hit
Where a name gives a salt, the structure may show the parent alone.
// classify(record): look up AC50 in ranges class A: < 20 µM; class B: ≥ 20 µM and < 70 µM; class C: ≥ 70 µM

compound	qualitative.label
CC(C)OC(=S)S [Proxan-sodium]	class C
CCCC(=O)c1cc(O)c(O)cc1O [2',4',5'-Trihydroxybutyrophenone]	class B
CCCCCCCCCC=CCC1CC(=O)OC1=O (stereo not shown) [(2-Dodecenyl)succinic anhydride]	class C
CCCOc1ccc(S(=O)(=O)N2CCN(CC)CC2)cc1-c1nc2c(CC)n(Cc3ccccn3)nc2c(=O)[nH]1	class C
CO[C@@H]1[C@H](OC(=O)NC(=O)CCl)CC[C@]2(CO2)[C@H]1[C@@]1(C)O[C@@H]1CC=C(C)C	class A
CC(C)(C)c1ccccc1O	class C
Cc1cc(C(F)(C(F)(F)F)C(F)(F)F)ccc1NC(=O)c1cccc(I)c1C(=O)NC(C)(C)CS(C)(=O)=O [Flubendiamide]	class B
c1ccc(CN(Cc2ccccc2)Cc2ccccc2)cc1	class C
C#Cc1cccc(Nc2ncnc3cc(OCCOC)c(OCCOC)cc23)c1	class B
CC(=O)O[C@]1(C(C)=O)CC[C@H]2[C@@H]3C[C@H](C)C4=CC(=O)CC[C@]4(C)[C@H]3CC[C@@]21C [Medroxyprogesterone acetate]	class B
C[C@]12C=CC(=O)N[C@@H]1CC[C@@H]1[C@@H]2CC[C@]2(C)[C@@H](C(=O)Nc3cc(C(F)(F)F)ccc3C(F)(F)F)CC[C@@H]12 [Dutasteride]	class A
CC(=O)c1c(C)cc(C(C)(C)C)cc1C	class B
CCOC(=O)NCCOc1ccc(Oc2ccccc2)cc1	class C
Nc1c(Br)cc(Br)cc1CN[C@H]1CC[C@H](O)CC1 [Ambroxolhydrochloride]	class B
CCC(COC(=O)c1cc(OC)c(OC)c(OC)c1)(c1ccccc1)N(C)C (stereo not shown) [Trimebutine maleate]	class A

----------
- Test system: thyroid hormone receptor (endogenous TRα and TRβ)
- Parameters: species or system GH3-TRE-Luc (rat pituitary); GH3-TRE-Luc luciferase reporter, antagonist mode against 1 nM T3, loss of signal, qHTS
- run.parameters: read-out: Average AC50 (uM) GH3-TRE-Antag, antagonist mode, 1 nM T3, no GH3 cytotoxicity hit
Counter-ions that a name gives are not always drawn.
Recorded measurements of AC50, one per entry

compound	modifier.sign	AC50 / µM
CCCCNc1ccc(C(=O)OCCN(CC)CC)cc1 [Depolipon]	=	21
CC(C)c1cccc(C(C)C)c1O [Propofol]	>	50
Cl/C=C\C[N+]12CN3CN(CN(C3)C1)C2 [Chloroallyl methenamine chloride]	=	89.1
Clc1ccc(CCC(Cn2ccnc2)Sc2c(Cl)cccc2Cl)cc1 (centres unmarked) [Butoconazole nitrate]	=	17.9
Cc1ccc(Cl)c(Nc2ccccc2C(=O)O)c1Cl [Meclofenamate sodium]	=	30.6
ClC1C(Cl)C(Cl)C(Cl)C(Cl)C1Cl (stereo not drawn) [alpha-1,2,3,4,5,6-Hexachlorocyclohexane]	=	26.5
COc1ccccc1/C=C/C=O [trans-2-Methoxycinnamaldehyde]	=	47.6
CCOc1ccc(Cc2nccc3cc(OCC)c(OCC)cc23)cc1OCC [Ethaverine hydrochloride]	=	8.58
O=[N+]([O-])c1c(Cl)c(Cl)c(Cl)c(Cl)c1Cl [Pentachloronitrobenzene]	>	90
CC(C(=O)O)c1ccc(C2CCCCC2)c2ccccc12 (centres unmarked) [Quadrisol]	=	35.8
COC(=O)c1c(Cl)c(Cl)c(C(=O)OC)c(Cl)c1Cl [Chlorthal-dimethyl]	=	72.5
c1ccc2c(c1)Cc1ccccc1-2 [Fluorene]	=	55.8
COC(=O)Nc1ccc(Cl)c(Cl)c1 [Swep]	>	90
CC/C=C\C/C=C\C/C=C\CCCCCCCC(=O)OCC [Ethyl linolenate]	=	65.3
Oc1cc(Cl)cc(Cl)c1 [3,5-Dichlorophenol]	=	54
CCCCN(CCCC)CCC(O)c1cc2c(Cl)cc(Cl)cc2c2cc(C(F)(F)F)ccc12 (centres unmarked) [Halofantrine hydrochloride]	=	15.6
COc1cccc(N(C)C(=S)Oc2ccc3c(c2)CCCC3)n1 [Liranaftate]	=	39.9
CCCCNc1c(C(=O)OCC)c(C)nc2c1cnn2CC [Tracazolate hydrochloride]	=	42.6
COc1ccc(O)cc1 [4-Methoxyphenol]	>	50
Cc1ccc2nc(-c3ccc(N)cc3)sc2c1S(=O)(=O)O	=	45.2
O=C1OC2(c3ccc(O)cc3Oc3cc(O)ccc32)c2ccccc21 [Fluorescein]	>	50
Cn1c(=O)c2[nH]c(Br)nc2n(C)c1=O [8-Bromotheophylline]	=	24.8
CCCCOc1ccc(OCCCN2CCOCC2)cc1 [Pramoxine hydrochloride]	=	12.8
C=CCOC(=O)/C=C\C(=O)OCC=C [Diprop-2-en-1-yl (2Z)-but-2-enedioate]	=	79.2
C/C(=C\c1csc(C)n1)[C@@H]1C[C@@H]2O[C@]2(C)CCC[C@H](C)[C@H](O)[C@@H](C)C(=O)C(C)(C)[C@@H](O)CC(=O)O1 [Epothilone B]	=	0.0109
CCCCC[Si](OCC)(OCC)OCC [Triethoxypentylsilane]	=	45.9
Cc1cccc(N(C)C(=S)Oc2ccc3ccccc3c2)c1 [Tolnaftate]	>	20
Cc1ccc(C(C)c2ccc(C)c(C)c2)cc1C [1,1-Bis(3,4-dimethylphenyl)ethane]	=	70.8
OCc1c[nH]c2ccccc12 [Indole-3-carbinol]	=	58.4
OCCCCCCCCCCCCBr [12-Bromo-1-dodecanol]	=	85.6
CC1=NC(C)OC1C (centres unmarked) [2,4,5-Trimethyl-3-oxazoline]	>	90
CO/N=C(/C(=O)OC)c1ccccc1COc1ccccc1C [Kresoxim-methyl]	=	3.65
Cc1cc(C(C)(C)C)cc(C)c1CC1=NCCN1 [Xylometazoline hydrochloride]	=	11
CCCCN(CCCC)C(=O)N(CCCC)CCCC [1,1,3,3-Tetrabutylurea]	=	22.2
O=C(Oc1ccccc1)c1ccc2ccccc2c1O [Phenyl 1-hydroxy-2-naphthoate]	=	84.9
C[C@]12CC[C@@H]3c4ccc(O)cc4CC[C@H]3[C@@H]1CC[C@H]2O [17alpha-Estradiol]	=	27
CCCCCCCCCCCC(=O)N(C)CC(=O)O [N-Dodecanoyl-N-methylglycine]	>	90
CN(CCOc1ccc(CC2SC(=O)NC2=O)cc1)c1ccccn1 (centres unmarked) [Rosiglitazone maleate]	=	75.1

The reported measurements were obtained from paper PMC6792352.
